Target: UniProt O75582
Sequence (O75582 whole entry, looked up): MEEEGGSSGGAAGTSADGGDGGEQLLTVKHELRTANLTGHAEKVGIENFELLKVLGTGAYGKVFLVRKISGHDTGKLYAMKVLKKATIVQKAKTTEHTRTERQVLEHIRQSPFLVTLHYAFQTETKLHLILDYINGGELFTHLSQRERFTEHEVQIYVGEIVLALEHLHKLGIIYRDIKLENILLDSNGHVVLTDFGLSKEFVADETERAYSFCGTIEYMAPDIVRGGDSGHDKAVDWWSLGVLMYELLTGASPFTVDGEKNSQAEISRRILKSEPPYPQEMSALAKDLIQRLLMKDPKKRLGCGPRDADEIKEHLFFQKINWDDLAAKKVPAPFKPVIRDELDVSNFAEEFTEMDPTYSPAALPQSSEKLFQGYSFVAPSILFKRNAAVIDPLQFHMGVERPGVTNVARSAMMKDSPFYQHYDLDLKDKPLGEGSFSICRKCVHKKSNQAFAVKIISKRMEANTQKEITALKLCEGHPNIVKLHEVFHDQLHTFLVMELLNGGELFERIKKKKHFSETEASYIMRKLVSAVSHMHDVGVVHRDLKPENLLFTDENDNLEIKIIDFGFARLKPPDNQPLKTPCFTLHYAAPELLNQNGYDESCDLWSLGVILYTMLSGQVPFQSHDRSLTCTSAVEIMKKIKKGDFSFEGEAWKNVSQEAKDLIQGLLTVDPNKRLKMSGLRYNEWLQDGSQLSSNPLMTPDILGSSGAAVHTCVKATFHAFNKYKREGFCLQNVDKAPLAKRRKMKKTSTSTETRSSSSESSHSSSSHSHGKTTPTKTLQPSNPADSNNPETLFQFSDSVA
Assay: KINOMEscan competition binding
Details: compound 10.0 µM
readout name: kinase still bound, per cent of control (%)
Answers are plain numbers, in %.

[
  {
    "smiles record": "COc1cc(N2CCN(C)CC2)ccc1Nc1nc(N)c(C(=O)c2c(Cl)cccc2Cl)s1",
    "kinase still bound, per cent of control (%)": 96
  }
]

Hi! Can you tell me kinase still bound, per cent of control for each of these compounds?
1. Cc1ccc(C(=O)Nc2cccc(C(F)(F)F)c2)cc1Nc1cncc(C(N)=O)c1
2. CC[C@@H]1C(=O)N(C)c2cnc(Nc3ccc(C(=O)NC4CCN(C)CC4)cc3OC)nc2N1C1CCCC1
3. CCN1CCN(Cc2ccc(Nc3ncc4c(n3)N(C)c3ccccc3C(=O)N4C)cc2C(F)(F)F)CC1
4. C=CC(=O)Nc1cc(NC(=O)c2ccc(C)c(NC(=O)c3ccno3)c2)cc(C(F)(F)F)c1
5. C=CC(=O)Nc1cccc(Oc2nc(Nc3ccc(N4CCN(C)CC4)cc3OC)ncc2Cl)c1
6. CN(C)C/C=C/C(=O)Nc1cccc(Nc2ncc3c(n2)N(C)c2ccccc2C(=O)N3C)c1
7. C[C@@H](Oc1cc(-n2cnc3ccc(CN4CCN(C)CC4)cc32)sc1C(N)=O)c1ccccc1C(F)(F)F

1. 100
2. 14
3. 100
4. 90
5. 100
6. 80
7. 34

Requested field: kinase still bound, per cent of control. Item: `O=C(NC1CC1)c1cccc(-c2ccc3c(NC(=O)C4CC4)n[nH]c3c2)c1`
100

* * *

Target: HIPK3 (human) (UniProt Q9H422)
Sequence (Q9H422 whole entry, looked up): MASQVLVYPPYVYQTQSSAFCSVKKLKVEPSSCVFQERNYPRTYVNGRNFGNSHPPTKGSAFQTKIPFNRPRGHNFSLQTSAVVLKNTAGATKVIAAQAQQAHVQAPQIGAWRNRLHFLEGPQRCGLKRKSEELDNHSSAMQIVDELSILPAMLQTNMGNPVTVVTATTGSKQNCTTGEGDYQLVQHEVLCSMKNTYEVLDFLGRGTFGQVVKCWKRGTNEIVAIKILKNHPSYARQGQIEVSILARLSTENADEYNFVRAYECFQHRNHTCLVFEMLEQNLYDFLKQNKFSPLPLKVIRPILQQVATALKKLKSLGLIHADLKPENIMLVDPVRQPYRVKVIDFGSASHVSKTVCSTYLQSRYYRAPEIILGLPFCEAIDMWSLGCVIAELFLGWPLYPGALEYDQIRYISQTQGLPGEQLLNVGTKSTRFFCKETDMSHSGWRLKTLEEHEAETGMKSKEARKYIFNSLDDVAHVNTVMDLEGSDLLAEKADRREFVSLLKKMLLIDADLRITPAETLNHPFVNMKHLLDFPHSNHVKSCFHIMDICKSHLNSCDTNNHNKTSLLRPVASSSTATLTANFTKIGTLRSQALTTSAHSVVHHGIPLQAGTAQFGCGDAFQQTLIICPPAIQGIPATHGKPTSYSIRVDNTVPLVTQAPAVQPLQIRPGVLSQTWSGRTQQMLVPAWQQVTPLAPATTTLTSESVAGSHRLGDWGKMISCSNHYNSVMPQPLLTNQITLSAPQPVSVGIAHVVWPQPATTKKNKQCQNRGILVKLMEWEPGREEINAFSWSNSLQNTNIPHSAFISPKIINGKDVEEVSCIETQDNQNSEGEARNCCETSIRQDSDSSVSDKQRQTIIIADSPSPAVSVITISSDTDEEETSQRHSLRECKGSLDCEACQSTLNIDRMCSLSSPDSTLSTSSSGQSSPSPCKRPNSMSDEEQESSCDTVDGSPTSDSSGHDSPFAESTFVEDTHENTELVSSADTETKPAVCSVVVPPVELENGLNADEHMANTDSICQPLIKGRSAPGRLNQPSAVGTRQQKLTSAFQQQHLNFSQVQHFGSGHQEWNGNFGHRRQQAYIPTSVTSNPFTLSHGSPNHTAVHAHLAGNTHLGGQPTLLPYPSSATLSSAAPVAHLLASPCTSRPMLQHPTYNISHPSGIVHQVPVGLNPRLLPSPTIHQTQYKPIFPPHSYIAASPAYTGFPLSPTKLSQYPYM
Assay: KINOMEscan competition binding
Conditions: compound 10.0 µM
Could you please mark Condition met for values of kinase still bound, per cent of control below 90% and Condition not met for values at or above it?

Look over these answered cases.
[
  {
    "smiles record": "OCCCNc1cc(-c2ccnc(Nc3cccc(Cl)c3)n2)ccn1",
    "cat": "Condition not met"
  },
  {
    "smiles record": "Cc1ccc(NC(=O)c2cccc(C(C)(C)C#N)c2)cc1Nc1ccc2ncn(C)c(=O)c2c1",
    "cat": "Condition met"
  },
  {
    "smiles record": "COc1cc(N2CCN(C)CC2)ccc1Nc1nc(N)c(C(=O)c2c(Cl)cccc2Cl)s1",
    "cat": "Condition not met"
  }
]

Consider the molecule `O=C(NOC[C@H](O)CO)c1ccc(F)c(F)c1Nc1ccc(I)cc1F` . Is its kinase still bound, per cent of control strictly less than 90%?
Condition met

* * *

Target: EPHA7 (human)
Test: KINOMEscan competition binding
Conditions: compound 10.0 µM
readout name: kinase still bound, per cent of control (%)
One number for each entry, in %.

[
  {
    "smiles record": "O=C(NOC[C@H](O)CO)c1ccc(F)c(F)c1Nc1ccc(I)cc1F",
    "measured target": "EPHA7 (human)",
    "output unit": "%",
    "kinase still bound, per cent of control": 94
  },
  {
    "smiles record": "Cc1ccc(C(=O)Nc2cccc(C(F)(F)F)c2)cc1Nc1cncc(C(N)=O)c1",
    "measured target": "EPHA7 (human)",
    "output unit": "%",
    "kinase still bound, per cent of control": 100
  },
  {
    "smiles record": "CC[C@@H]1C(=O)N(C)c2cnc(Nc3ccc(C(=O)NC4CCN(C)CC4)cc3OC)nc2N1C1CCCC1",
    "measured target": "EPHA7 (human)",
    "output unit": "%",
    "kinase still bound, per cent of control": 100
  },
  {
    "smiles record": "C[C@@H](Oc1cc(-n2cnc3ccc(CN4CCN(C)CC4)cc32)sc1C(N)=O)c1ccccc1C(F)(F)F",
    "measured target": "EPHA7 (human)",
    "output unit": "%",
    "kinase still bound, per cent of control": 83
  }
]

Please tell me: kinase still bound, per cent of control of `C=CC(=O)Nc1cc(NC(=O)c2ccc(C)c(NC(=O)c3ccno3)c2)cc(C(F)(F)F)c1` , system EPHA7 (human)?
77

Data credit: the kinase profiling compilation of Christmann-Franck et al. (2016)
